# test_target: T1, Fus1, P11710
# T1 sequence (P11710 432-512, looked up): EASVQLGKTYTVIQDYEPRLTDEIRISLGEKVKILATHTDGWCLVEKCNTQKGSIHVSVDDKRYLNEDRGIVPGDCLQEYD
# method_notes: SPOT array
# stated_conditions: median of control spots 1200
property_name: SPOT intensity

Consider the worked cases shown below.
**Query** Requested field: SPOT intensity. Item: RHLKLVPSTPMDIPW
**Result** 1430

**Query** Also QQEQNTPPLPPKPKS , if possible.
**Result** 0

**Query** Also QLLNPNRRAPRRPLS , if possible.
**Result** 1

[1] GRLRPKRIAPWHLIQ
[2] KKIRLIFTYPSTVGR
[3] RPVPPPPPMRTTTEG
**Query** Sort the binders on SPOT intensity; start with the lowest figure. // list labels; follow requested order
**Result** 3, 1, 2

[A] LKHGWKPLRPIKLIS
[B] LASNSPPVYPKRIRH
**Query** Param metric = SPOT intensity; output whichever of A , B has the minimum value. # respond with the chosen item's label
**Result** B
(B: 0, A: 4)

[a] HKVLRPFLLRRLKKD
[b] NIKVLLNPKLGKPVK
**Query** Please state the entry with greater SPOT intensity among a and b . # respond with the chosen item's label
**Result** a

Where these numbers come from: paper PMC2756588
